B1: tRNA (parent)
chain: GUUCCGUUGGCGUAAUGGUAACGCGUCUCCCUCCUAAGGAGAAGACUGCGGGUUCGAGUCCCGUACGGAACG

Variants of: B1
Experiment: yeast fitness relative to wild type (ratio to wild type); higher = fitter; tRNA-Arg(CCU), competitive growth, 37 C, YPD
This sample holds only a part of the variants without activity.
Documented yeast fitness across a set of variants
MEASURED_PARAMETER: yeast fitness

>  <VARIANT_ANNOTATION>
U8A C34G

>  <RESULT>
≤ 0.5

$$$$
>  <VARIANT_ANNOTATION>
G9C A42U C62G

>  <RESULT>
≤ 0.5

$$$$
>  <VARIANT_ANNOTATION>
A14U G41C C49U A65U

>  <RESULT>
≤ 0.5

$$$$
>  <VARIANT_ANNOTATION>
U3A C5A A45C G50C

>  <RESULT>
≤ 0.5

$$$$
>  <VARIANT_ANNOTATION>
U19C C29A A37G

>  <RESULT>
≤ 0.5

$$$$
>  <VARIANT_ANNOTATION>
C5G A14C G18A A43G A45C C46U A57G

>  <RESULT>
≤ 0.5

$$$$
>  <VARIANT_ANNOTATION>
U3A C5G U7C U35A A40U C46G U53A G68C

>  <RESULT>
≤ 0.5

$$$$
>  <VARIANT_ANNOTATION>
A15G A20C C24G A57G

>  <RESULT>
≤ 0.5

$$$$
>  <VARIANT_ANNOTATION>
C22U U32C G52A C61U

>  <RESULT>
≤ 0.5

$$$$
>  <VARIANT_ANNOTATION>
G6A C11U C62A A65U C66U

>  <RESULT>
≤ 0.5

$$$$
>  <VARIANT_ANNOTATION>
U8C G25C C33A

>  <RESULT>
≤ 0.5

$$$$
>  <VARIANT_ANNOTATION>
U8C A21G A69C

>  <RESULT>
0.761

$$$$
>  <VARIANT_ANNOTATION>
G6A U13A A14G A42U G48C G67C

>  <RESULT>
≤ 0.5

$$$$
>  <VARIANT_ANNOTATION>
U3C G9A A21G A40G G56A U64C

>  <RESULT>
≤ 0.5

$$$$
>  <VARIANT_ANNOTATION>
C5U A21U C31U G52A A69G

>  <RESULT>
≤ 0.5

$$$$
>  <VARIANT_ANNOTATION>
G6A A42U

>  <RESULT>
0.784

$$$$
>  <VARIANT_ANNOTATION>
C4A G9C C30A G39A G56C

>  <RESULT>
≤ 0.5

$$$$
>  <VARIANT_ANNOTATION>
C22U C49U U64A

>  <RESULT>
0.53

$$$$
>  <VARIANT_ANNOTATION>
A43G G63U U64A

>  <RESULT>
0.567

$$$$
>  <VARIANT_ANNOTATION>
U2C C5U A40U G50A

>  <RESULT>
≤ 0.5

$$$$
>  <VARIANT_ANNOTATION>
C29G C49G G63C

>  <RESULT>
≤ 0.5

$$$$
>  <VARIANT_ANNOTATION>
A45U A65G A70C

>  <RESULT>
0.754

$$$$
>  <VARIANT_ANNOTATION>
G6C A21U C61G A69C

>  <RESULT>
≤ 0.5

$$$$
>  <VARIANT_ANNOTATION>
U13C G23C A36C G39A

>  <RESULT>
0.611

$$$$
>  <VARIANT_ANNOTATION>
C27G C60U

>  <RESULT>
≤ 0.5

$$$$
>  <VARIANT_ANNOTATION>
U7A A21C C31G

>  <RESULT>
≤ 0.5

$$$$
>  <VARIANT_ANNOTATION>
U2A U3C G6A U26C G56A

>  <RESULT>
≤ 0.5

$$$$
>  <VARIANT_ANNOTATION>
U2G C24U A69U

>  <RESULT>
0.681

$$$$
>  <VARIANT_ANNOTATION>
A21C A45C C49U C55G G56C

>  <RESULT>
≤ 0.5

$$$$
>  <VARIANT_ANNOTATION>
C5G C22G C62A

>  <RESULT>
0.509

$$$$
>  <VARIANT_ANNOTATION>
A21C A37C A69U

>  <RESULT>
≤ 0.5

$$$$
>  <VARIANT_ANNOTATION>
C4G C30A C49G A65C

>  <RESULT>
≤ 0.5

$$$$
>  <VARIANT_ANNOTATION>
U16G A45G

>  <RESULT>
1

$$$$
>  <VARIANT_ANNOTATION>
A14U C34G

>  <RESULT>
≤ 0.5

$$$$
>  <VARIANT_ANNOTATION>
G6A C11G G17U G38A A43U U54A

>  <RESULT>
≤ 0.5

$$$$
